The origin of these recorded values is patent US8476043B2.

Here the recorded pIC50 is given for each entry.
Biological target: mouse sEH (Mus musculus, UniProt P34914)
Construct: made in house
Sequence (P34914 1-554): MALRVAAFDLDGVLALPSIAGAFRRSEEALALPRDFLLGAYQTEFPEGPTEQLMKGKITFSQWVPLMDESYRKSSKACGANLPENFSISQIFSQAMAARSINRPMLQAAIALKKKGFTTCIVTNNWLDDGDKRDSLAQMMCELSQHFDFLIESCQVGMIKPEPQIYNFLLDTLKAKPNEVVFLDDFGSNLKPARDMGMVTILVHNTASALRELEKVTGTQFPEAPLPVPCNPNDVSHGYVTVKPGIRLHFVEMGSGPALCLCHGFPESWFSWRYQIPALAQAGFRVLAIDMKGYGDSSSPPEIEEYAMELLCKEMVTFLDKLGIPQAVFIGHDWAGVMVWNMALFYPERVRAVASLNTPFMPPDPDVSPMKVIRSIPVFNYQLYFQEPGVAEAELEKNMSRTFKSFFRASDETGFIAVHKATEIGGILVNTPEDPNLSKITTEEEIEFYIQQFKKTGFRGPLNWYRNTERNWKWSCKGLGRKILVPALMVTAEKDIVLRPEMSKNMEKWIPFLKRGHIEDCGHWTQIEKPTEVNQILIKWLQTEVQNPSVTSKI
Experiment: sEH inhibition, spectrometric assay with racemic 4-nitrophenyl-trans-2,3-epoxy-3-phenylpropyl carbonate as substrate
Type: biochemical
pIC50: −log10 of the molar value.
measured attribute: pIC50

{"columns": ["compound", "measured attribute", "value observed"],
 "data": [
  ["CCOC(=O)c1ccc(COC(=O)CCCNC(=O)NC23CC4CC(CC(C4)C2)C3)cc1 [Compound 849]", "pIC50", 8.00],
  ["CCOC(=O)/C=C/c1ccc(OC(=O)CCCNC(=O)NC23CC4CC(CC(C4)C2)C3)cc1 [Compound 851]", "pIC50", 8.00]
]}
